Target: T1, human NMUR1 (human, UniProt Q9HB89 1-426)
T1 sequence (looked up): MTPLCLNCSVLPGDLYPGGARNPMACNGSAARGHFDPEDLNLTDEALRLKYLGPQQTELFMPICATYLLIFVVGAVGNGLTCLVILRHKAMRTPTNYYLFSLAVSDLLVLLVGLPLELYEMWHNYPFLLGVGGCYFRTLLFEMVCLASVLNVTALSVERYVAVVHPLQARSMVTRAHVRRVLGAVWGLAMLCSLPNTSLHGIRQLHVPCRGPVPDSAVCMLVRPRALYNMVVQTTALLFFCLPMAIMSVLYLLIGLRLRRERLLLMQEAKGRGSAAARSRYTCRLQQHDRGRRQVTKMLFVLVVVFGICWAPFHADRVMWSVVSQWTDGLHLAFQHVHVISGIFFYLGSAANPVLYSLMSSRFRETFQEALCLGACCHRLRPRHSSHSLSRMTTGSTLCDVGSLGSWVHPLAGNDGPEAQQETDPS
Experiment: cell-based or functional assay
No end group written: not given here.
METRIC_NAME: EC50 (nM)
Use nM as the unit, but write only the number.

Prompt line: Please look up its EC50: FALFRPRN-NH2 [neuromedin U receptor agonist N]
Response line: 53

Next binder, please.
Prompt line: Tell me the measured EC50 of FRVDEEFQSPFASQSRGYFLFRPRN-NH2 (also called hNMU-25; native hNMU) [human NMU-25] , please.
Response line: 5.5
